Values were extracted from patent US20240400708A1.

molecular target: feline FcRn complex (FcRn-α subunit and β-microglobulin), biotin labeled (feline); assay: SPR, pH 6
MEASURE: Kd (nM)
API: value field is a number in nM; no unit string.

Any idea what its Kd is? The binder is feline IgG1a S254D (antibody, part only; not given: Variable domains, not shown: another chain or arm of the molecule) constant: ASTTAPSVFPLAPSCGTTSGATVALACLVLGYFPEPVTVSWNSGALTSGVHTFPAVLQASGLYSLSSMVTVPSSRWLSDTFTCNVAHPPSNTKVDKTVRKTDHPPGPKPCDCPKCPPPEMLGGPSIFIFPPKPKDTLSIDRTPEVTCLVVDLGPDDSDVQITWFVDNTQVYTAKTSPREEQFNSTYRVVSVLPILHQDWLKGKEFKCKVNSKSLPSPIERTISKAKGQPHEPQVYVLPPAQEELSRNKVSVTCLIKSFHPPDIAVEWEITGQPEPENNYRTTPPQLDSDGTYFVYSKLSVDRSHWQRGNTYTCSVSHEALHSHHTQKSLTQSPGK
474

Shifting focus to the binder that follows.
Using the record for feline IgG1a S252Y/L314K/S434Y (antibody, part only; not given: Variable domains, not shown: another chain or arm of the molecule; small tags and cut ends) constant: ASTTAPSVFPLAPSCGTTSGATVALACLVLGYFPEPVTVSWNSGALTSGVHTFPAVLQASGLYSLSSMVTVPSSRWLSDTFTCNVAHPPSNTKVDKTVRKTDHPPGPKPCDCPKCPPPEMLGGPSIFIFPPKPKDTLYISRTPEVTCLVVDLGPDDSDVQITWFVDNTQVYTAKTSPREEQFNSTYRVVSVLPILHQDWKKGKEFKCKVNSKSLPSPIERTISKAKGQPHEPQVYVLPPAQEELSRNKVSVTCLIKSFHPPDIAVEWEITGQPEPENNYRTTPPQLDSDGTYFVYSKLSVDRSHWQRGNTYTCSVSHEALHYHHTQKSLTQSPGK , report its Kd.
0.0496
